Test: Oral pharmacokinetics in female BALB/c mice
Format: in vivo, mouse
Settings: female, BALB/c, mouse, urine, po, 50 mg/kg, oral 50 mg/kg, Time 24 (head prints days); read-out: Urine Free
READOUT_KIND: concentration at 24 h (nM)
Give bare numbers, in nM.

The molecule COc1ccc(C2c3ccc(O)c(C)c3OCC2c2ccc(O)cc2)cc1 (stereo not shown) showed concentration at 24 h equal to 100

---

System: murine macrophages (RAW 264.7) stimulated with LPS
Assay: Eicosanoid synthesis in LPS-stimulated RAW 264.7 macrophages
Type: cell-based, mouse
Details: test compound 10 μM, LPS 50 ng/ml, 16 hrs; negative = inhibition
READOUT_KIND: Percentage change in PGE2 synthesis compared with vehicle (%)
Answers are plain numbers, in %.

Please review the following examples before continuing.
- COc1ccc(C2c3ccc(O)c(C)c3OCC2c2ccc(O)cc2)cc1 (centres unmarked) [Compound 1]: −53.8
- Cc1ccc(C2(O)c3ccc(O)cc3OCC2c2ccc(O)cc2)cc1 (centres unmarked) [Compound 10]: −23.1
- Oc1ccc(C2COc3cc(O)ccc3C2(O)c2ccccc2)cc1 (centres unmarked) [Compound 14]: −23.6
- Oc1ccc(C2=C(c3ccccc3)c3ccc(O)cc3OC2)cc1 [Compound 30]: −60.7
- COc1ccc(C2=C(c3ccc(O)cc3)COc3cc(O)ccc32)cc1 [Compound 27]: −84.2

I have 6 molecules here; please give me Percentage change in PGE2 synthesis compared with vehicle for each one.
1. COc1ccc(C2COc3cc(OC)ccc3C2(O)c2ccc(OC)cc2)cc1 (centres unmarked) [Compound 12]
2. COc1ccc(C2=C(c3ccc(O)cc3)COc3c2ccc(O)c3C)cc1 [Compound 32]
3. COc1cccc(C2=C(c3ccc(O)cc3)COc3cc(O)ccc32)c1 [Compound 31]
4. COc1cccc(C2(O)c3ccc(O)cc3OCC2c2ccc(O)cc2)c1 (centres unmarked) [Compound 15]
5. COc1ccc(C2=C(c3ccc(OC)cc3)c3ccc(OC)cc3OC2)cc1 [Compound 28]
6. COc1ccc(C2(O)c3ccc(O)cc3OCC2c2ccc(O)cc2)cc1 (centres unmarked) [Compound 11]

Result:
["−68.3", "−71.1", "−41.4", "−38.3", "−85.1", "−51.0"]

---

Experiment: Oral pharmacokinetics in female BALB/c mice
Type: in vivo, mouse
Conditions: female, BALB/c, mouse, serum, po, 50 mg/kg, oral, Time 0.5, Table 4; read-out: Free concentration, comparative oral pharmacokinetic data
READOUT_KIND: concentration at 0.5 h (µM)
Answers are plain numbers, in µM.

The compound COc1ccc(C2c3ccc(O)c(C)c3OCC2c2ccc(O)cc2)cc1 (stereo not shown) [Compound 1] showed concentration at 0.5 h equal to 8.2

---

Experiment: Preliminary formulation study, solubility in 20% HPBCD
Assay type: physicochemical
Conditions: aqueous with cosolvent or surfactant or cyclodextrin, preliminary formulation studies
READOUT_KIND: solubility

The compound COc1ccc(C2c3ccc(O)c(C)c3OCC2c2ccc(O)cc2)cc1 (stereo not shown) showed solubility equal to 11.2 mg/mL

---

Test system: MDA-MB-468
Assay: MTT proliferation assay, breast MDA-MB-468
Assay type: cell-based
Conditions: Homo sapiens; Breast MDA-MB-468, Table 2.1; read-out: cytoxicity (IC50)
READOUT_KIND: IC50 (nM)
One number for each entry, in nM.

The compound COc1ccc(C2c3ccc(O)c(C)c3OCC2c2ccc(O)cc2)cc1 (stereo not shown) [Compound 1] showed IC50 equal to 600
